System: CCRIS mutagenicity, Ames/micronucleus/aberration tests
experiment description: CCRIS mutagenicity studies
conditions used: Test System: AMES SALMONELLA TYPHIMURIUM; Strain/Indicator: TA100; Metabolic Activation: NONE; Method: PREINCUBATION
From the text: The CCRIS database contains chemical records with carcinogenicity, mutagenicity, tumor promotion, and tumor inhibition test results. It was developed by the National Cancer Institute (NCI). Data are derived from studies cited in primary journals, current awareness tools, NCI reports, and other sources. Test results have been reviewed by experts in carcinogenesis and mutagenesis. CCRIS provides historical information from the years 1985 - 2011. It is no longer updated. […]
The source made the active and inactive calls. No rule for the calls is given here.
measurement type: mutagenic call

Recorded results for 8 compounds are shown here.
[
  {
    "compound": "O=C1CCCCC1",
    "measurement type": "mutagenic call",
    "result": "inactive; negative"
  },
  {
    "compound": "Cc1ccc(N)c(N)c1",
    "measurement type": "mutagenic call",
    "result": "inactive; negative"
  },
  {
    "compound": "C[N+]1([O-])CCC[C@H]1c1cccnc1 (some centres undefined)",
    "measurement type": "mutagenic call",
    "result": "inactive; negative"
  },
  {
    "compound": "[Be+2]",
    "measurement type": "mutagenic call",
    "result": "inactive; negative"
  },
  {
    "compound": "[Li+]",
    "measurement type": "mutagenic call",
    "result": "inactive; negative"
  },
  {
    "compound": "Cc1c(Br)c(Br)c(Br)c(Br)c1Br",
    "measurement type": "mutagenic call",
    "result": "inactive; negative"
  },
  {
    "compound": "CC(C)Nc1ccccc1",
    "measurement type": "mutagenic call",
    "result": "inactive; negative"
  },
  {
    "compound": "CNc1ccc2ncc(C)nc2c1N",
    "measurement type": "mutagenic call",
    "result": "inactive; negative"
  }
]

Then there is this compound:
[Q] For Nc1cc(Cl)cc(Cl)c1O , what is its reported mutagenic call?
[A] inactive; negative

----------
System: CCRIS mutagenicity, Ames/micronucleus/aberration tests
experiment description: CCRIS mutagenicity studies
conditions used: Test System: AMES SALMONELLA TYPHIMURIUM; Strain/Indicator: TA97; Metabolic Activation: RAT, LIVER, S-9, AROCLOR 1254 (10%); Method: PREINCUBATION
Description: The CCRIS database contains chemical records with carcinogenicity, mutagenicity, tumor promotion, and tumor inhibition test results. It was developed by the National Cancer Institute (NCI). Data are derived from studies cited in primary journals, current awareness tools, NCI reports, and other sources. Test results have been reviewed by experts in carcinogenesis and mutagenesis. CCRIS provides historical information from the years 1985 - 2011. It is no longer updated. […]
Active and inactive are the calls of the source. No rule for the calls is given here.
Assign a class; possible classes are active, inactive

Observe how each entry below is paired with its result.
[
  {
    "compound": "Cc1ccc(N=C=O)cc1N=C=O",
    "system name": "CCRIS mutagenicity, Ames/micronucleus/aberration tests",
    "class label": "inactive"
  },
  {
    "compound": "O=C(O)C1=NN(c2ccc(S(=O)(=O)O)cc2)C(=O)C1N=Nc1ccc(S(=O)(=O)O)cc1.[Al] (configuration not stated)",
    "system name": "CCRIS mutagenicity, Ames/micronucleus/aberration tests",
    "class label": "inactive"
  },
  {
    "compound": "CCO",
    "system name": "CCRIS mutagenicity, Ames/micronucleus/aberration tests",
    "class label": "inactive"
  },
  {
    "compound": "CCOP(=S)(OCC)OP(=S)(OCC)OCC",
    "system name": "CCRIS mutagenicity, Ames/micronucleus/aberration tests",
    "class label": "inactive"
  },
  {
    "compound": "ClC(Cl)(Cl)Cl",
    "system name": "CCRIS mutagenicity, Ames/micronucleus/aberration tests",
    "class label": "inactive"
  }
]

[Q] Assay result, entry Cc1cccc(Br)c1 — outcome?
[A] inactive

[Q] Assay result, entry O=NN(CCO)CCO — outcome?
[A] active

----------
Tested on: CCRIS mutagenicity, Ames/micronucleus/aberration tests
experiment description: CCRIS mutagenicity studies
conditions used: Test System: AMES SALMONELLA TYPHIMURIUM; Strain/Indicator: TA100; Metabolic Activation: NONE; Method: PREINCUBATION
Activity calls are given as the source filed them. The rule behind the calls is not given here.
Assign a class; possible classes are active, inactive

[
  {
    "molecule": "CN(C)C(=N)N(C)C",
    "class label": "inactive"
  }
]

[Q] Assay result, entry COc1cc(-c2ccc(N)c(OC)c2)ccc1N — outcome?
[A] inactive

[Q] Assay result, entry Cc1ccc(Cl)cc1[N+](=O)[O-] — outcome?
[A] inactive

[Q] Assay result, entry CCCc1cc2ccccc2c2ccc3c(c12)C1OC1C(O)C3O (stereo not drawn) — outcome?
[A] inactive

[Q] Assay result, entry [O]=[Mg] — outcome?
[A] inactive

[Q] Assay result, entry CCOC(=O)N(CCCC(=O)c1cccnc1)N=O — outcome?
[A] active

[Q] Assay result, entry c1ccc2c3c(ccc2c1)-c1cccc2cccc-3c12 — outcome?
[A] inactive

[Q] Assay result, entry CC1CCc2c(N3CCC(O)CC3)c(F)cc3c(=O)c(C(=O)O)cn1c23 (stereo not drawn) — outcome?
[A] inactive

[Q] Assay result, entry C[O+](C)C.[Cl][Sb-]([Cl])([Cl])([Cl])([Cl])[Cl] — outcome?
[A] inactive

[Q] Assay result, entry N#CN=C(N)N — outcome?
[A] inactive

[Q] Assay result, entry ClC(Cl)(Cl)Cl — outcome?
[A] inactive

[Q] Assay result, entry CCCCCc1cc(O)cc(O)c1 — outcome?
[A] inactive

[Q] Assay result, entry CC(=O)c1cccc2c1OC1(C)OOC21C (stereo not drawn) — outcome?
[A] active

----------
Tested on: CCRIS mutagenicity, Ames/micronucleus/aberration tests
experiment description: CCRIS mutagenicity studies
conditions used: Test System: AMES SALMONELLA TYPHIMURIUM; Strain/Indicator: TA100; Metabolic Activation: HAMSTER, LIVER, S-9, AROCLOR 1254 (10 OR 30%); Method: PREINCUBATION
Activity calls are given as the source filed them. How the calls were made is not given here.
measurement type: mutagenic call

Recorded results for 6 compounds are shown here.
[
  {
    "chemical string": "O",
    "mutagenic call": "inactive; negative"
  },
  {
    "chemical string": "ClC1=C(Cl)[C@]2(Cl)[C@H]3[C@H]([C@@H]4C=C[C@H]3C4)[C@@]1(Cl)C2(Cl)Cl",
    "mutagenic call": "inactive; negative"
  },
  {
    "chemical string": "CCCCOCCOCCO",
    "mutagenic call": "inactive; negative"
  },
  {
    "chemical string": "C[C@@H]1C[C@@H]([C@H](O)CC2CC(=O)NC(=O)C2)C(=O)[C@@H](C)C1",
    "mutagenic call": "inactive; negative"
  },
  {
    "chemical string": "C#C[C@]1(O)CC[C@H]2[C@@H]3CCc4cc(O)ccc4[C@H]3CC[C@@]21C",
    "mutagenic call": "inactive; negative"
  },
  {
    "chemical string": "CCNc1ccccc1",
    "mutagenic call": "inactive; negative"
  }
]

For each of the compounds below, state mutagenic call.
1. CC(=O)c1ccncc1
2. CCCCCCCCCCCCCl
3. c1ccc2sc(SSc3nc4ccccc4s3)nc2c1
4. CCC#N
5. Nc1cc([N+](=O)[O-])cc(S(=O)(=O)O)c1O
6. CCCCCCCCCc1ccc(OP(=O)(Oc2ccccc2)Oc2ccccc2)cc1

[A]
["inactive; negative", "inactive; negative", "inactive; negative", "inactive; negative", "inactive; negative", "inactive; negative"]

----------
Tested on: CCRIS mutagenicity, Ames/micronucleus/aberration tests
experiment description: CCRIS mutagenicity studies
conditions used: Test System: AMES SALMONELLA TYPHIMURIUM; Strain/Indicator: TA98; Metabolic Activation: RAT LIVER S-9, PHENOBARBITAL AND BETA-NAPHTHOFLAVONE; Method: PREINCUBATION
Calls of active or inactive are those of the source. How the calls were made is not given here.
measurement type: mutagenic call

Recorded results for 4 compounds are shown here.
[
  {
    "chemical string": "CCCCCCCCCCCCCCCC(=O)O",
    "result": "inactive; negative"
  },
  {
    "chemical string": "Cc1cnc[nH]1",
    "result": "inactive; negative"
  },
  {
    "chemical string": "O=C(O)CBr",
    "result": "inactive; negative"
  },
  {
    "chemical string": "OB(O)O",
    "result": "inactive; negative"
  }
]

For each of the compounds below, state mutagenic call.
1. O=C1OC(=O)c2ccccc21
2. Cc1ccc(N=C=O)cc1N=C=O
3. C=CC(=O)O
4. Cc1ccccc1Cl
5. O
6. O=C(Cl)c1ccc(Cl)cc1
7. Nc1cc(Cl)ccc1[N+](=O)[O-]
8. N#CN=C(N)N

[A]
1. inactive; negative
2. inactive; negative
3. inactive; negative
4. inactive; negative
5. inactive; negative
6. inactive; negative
7. active; positive
8. inactive; negative

All values here come from PubChem BioAssay AID1259407.
